target: HLA-DR DRB1*0401 (DR4) (Homo sapiens, UniProt P01903+P01911, A100K/A169T/F76Y/I96L/K127E/L162R/M171V/N62H/P40V/Q125Y/R42H/S133A/S149N/S66Y/V115G/V209L/W38E); test: biochemical; type: binding; conditions: read-out: DRB1 *0401
The reader will find reported log10(IC50) values listed item by item below.
# log10 transformed; quantity=IC50; unit=nM

1) LGFLQRSSNTQTQK = 1.26
2) LCNFKKNIIALLIIP = 2.49

Prompt line: Given "KSKFNILSSPLFNNF" , state its recorded log10(IC50).
Response line: 1.20

Prompt line: Then "AALAAAAAAKAAA" ?
Response line: 1.08

Prompt line: Next up: "EGDAFELTVSC"
Response line: 2.76

Prompt line: One more substance: "SVTWIGAAPLILSPI"
Response line: 3.50

Source listed as patent US20060079453A1.
